Test system: OVCAR-5 ovarian
EXPERIMENTAL PROTOCOL: NCI tumour cell line growth inhibition, 48 h

# MOLECULE, TGI
data = [
    ("Cc1c(N=Nc2ccc(Cl)cc2)c(-c2ccccc2)n(C2OC(CO)C(O)C(O)C2O)c(=S)c1C#N (stereo unspecified)", "33.7 µM"),
    ("O=C1CCCC1CN1CCCC1 (stereo unspecified)", "32.4 µM"),
    ("CN(C)CCC(=O)c1ccccc1", "> 57.6 µM"),
    ("CCSc1ncnc2c1ncn2C1OC(CO)C(O)C1O (stereo unspecified)", "> 100 µM"),
    ("O=C(O)CCC(NC(=O)c1ccc(Nc2nc3cc(C(F)(F)F)ccc3nc2-c2ccccc2)cc1)C(=O)O (stereo unspecified)", "> 100 µM"),
    ("O=C1Nc2ccccc2/C1=N\\[O-].O=C1Nc2ccccc2/C1=N\\[O-].[Cu+2]", "> 100 µM"),
    ("Cc1nn(-c2ccccc2)c2c1C(c1ccc(Cl)cc1)NC(=S)N2 (stereo unspecified)", "89.4 µM"),
    ("COc1ccc(/C=C2\\N=C(SC)N(CN3CCOCC3)C2=O)cc1", "> 100 µM"),
    ("CN1CCOC(c2ccccc2)O1 (stereo unspecified)", "> 100 µM"),
    ("O=[N+]([O-])c1ccc2c(c1)C1=C(CO2)Cc2ccccc2O1", "54.7 µM"),
    ("CCOC(=O)NC(Nc1ccc(S(=O)(=O)Nc2nc(C)cc(C)n2)cc1)(C(=O)OCC)C(F)(F)F (stereo unspecified)", "> 100 µM"),
]

----------
System: LOX IMVI melanoma
EXPERIMENTAL PROTOCOL: NCI tumour cell line growth inhibition, 48 h
Reported TGI values are given for each entry in this list.

# MOLECULE, TGI
data = [
    ("O=C(CSc1nc2ccccc2nc1-c1ccccc1)Nc1ccc(F)cc1", "> 100 µM"),
    ("CCOC(=O)Nc1ccc(C)c(NC(=O)OCC)c1", "> 100 µM"),
    ("Cc1ncc(C(=O)Nc2ccc(CN3CCN(C)CC3)c(C(F)(F)F)c2)cc1C#Cc1cnc(N)c2ccncc12", "1.4 µM"),
    ("O=C(Nc1ccncc1)C(=O)c1cn(S(=O)(=O)c2ccc(F)cc2)c2ccccc12", "> 100 µM"),
    ("C1CN2CCN3CCN4CCN1[P+]243", "> 100 µM"),
    ("CCOC(=O)C12OC(CCC1=O)C(C(=O)OC)=C2C(=O)OC (stereo unspecified)", "> 10 µM"),
]

----------
System: SN12C renal
EXPERIMENTAL PROTOCOL: NCI tumour cell line growth inhibition, 48 h; in the data active = GI50 below about 0.43 µM; inactive = the rest
Labels: Yes = active, No = inactive

# COMPOUND, ASSIGNED CATEGORY
records = [
    ("CNCC#Cc1c(F)ccc2c1/C(=C/c1[nH]ccc1OC)C(=O)N2", "Yes"),
    ("Cc1nn(-c2ccc(Cl)cc2)c2nc3c(nc12)C(=O)c1ccccc1-3", "No"),
    ("Oc1cc2cccc[n+]2c2cc(Cl)ccc12", "No"),
    ("O=C(Nc1ccncc1)C(=O)c1cn(S(=O)(=O)c2ccc(F)cc2)c2ccccc12", "No"),
    ("COc1cc(NCc2ccc3nc(N)nc(N)c3c2C)cc(OC)c1OC (tested in a mixture with another compound)", "Yes"),
    ("COc1ccc2[nH]cc(C3(c4c[nH]c5ccc(OC)cc45)C(=O)Nc4ccc(F)cc43)c2c1", "No"),
    ("Clc1ccc2[nH]cc(-c3nnnn3-c3ccccc3)c2c1", "No"),
    ("Cn1cc(-c2csc(-c3c[nH]c4ccc(F)cc34)n2)c2cnccc21", "No"),
    ("Cc1ncc(C(=O)Nc2ccc(CN3CCN(C)CC3)c(C(F)(F)F)c2)cc1C#Cc1cnc(N)c2ccncc12", "No"),
    ("COc1ccc(/C=C2/N=C(c3ccccc3)N(c3c(C)n(C)n(-c4ccccc4)c3=O)C2=O)cc1OC", "No"),
    ("O=C1C=CC(=O)c2cc3cc(CBr)ccc3cc21", "No"),
]

----------
Measured TGI, listed per entry.
Tested on: KM12 colon
EXPERIMENTAL PROTOCOL: NCI tumour cell line growth inhibition, 48 h

# MOLECULE, TGI
measured = [
    ("COC(=O)C(Cc1c[nH]c2ccccc12)NP(=O)(O)OCC1OC(n2cc(I)c(=O)[nH]c2=O)CC1O (configuration not stated)", "> 100 µM"),
    ("CN(C)CCCN1CCC2(CCC(C(C)(C)C)CC2)CC1", "6.18 µM"),
    ("O=C(Nc1ccncc1)C(=O)c1cn(S(=O)(=O)c2ccc(F)cc2)c2ccccc12", "> 100 µM"),
    ("Clc1ccc(C2C3COc4ccccc4C3=NN2c2ccccc2)cc1 (configuration not stated)", "> 100 µM"),
    ("CN(C)CCC(=O)c1ccccc1", "> 61.4 µM"),
    ("O=C(Nc1nc(C23CC4CC(CC(C4)C2)C3)cs1)c1cc2ccc(O)cc2oc1=O", "29.9 µM"),
    ("CC1(CCOCc2ccccc2)NC(=O)NC1=O (configuration not stated)", "> 100 µM"),
    ("CC12CP(=O)(c3ccccc3)CC1C2(Cl)Cl (configuration not stated)", "> 100 µM"),
    ("COC(=O)/C=C(\\C)CC(O)/C=C(\\C)CCC=C(C)C (configuration not stated)", "> 100 µM"),
    ("CCSc1ncnc2c1ncn2C1OC(CO)C(O)C1O (configuration not stated)", "> 100 µM"),
    ("CC#CCOC(=O)c1ccccc1OC(C)=O", "> 100 µM"),
    ("COc1cc(-n2cc(-c3ccc(F)cc3)[nH]c2=O)cc(OC)c1OC", "> 100 µM"),
]

----------
Tested on: HOP-62 NSCLC
EXPERIMENTAL PROTOCOL: NCI tumour cell line growth inhibition, 48 h
Entries annotated with measured TGI
RECORDED METRIC: TGI

# COMPOUND, TEST VALUE
data = [
    ("CSc1nc(Nc2cccc(C(F)(F)F)c2)c2c(N)nn(C)c2n1", "> 100 µM"),
    ("O=c1cnn(C/C=C/CO)c(=O)[nH]1", "> 100 µM"),
    ("Cc1c2c(C#N)nccc2c(C)c2c1c1ccccc1n2Cc1ccccc1", "> 100 µM"),
    ("CC12CC(c3ccccc3O1)C(C(=O)Nc1ccc(Cl)cc1Cl)C(=O)N2 (stereo unspecified)", "48.4 µM"),
    ("Nc1nc(SC/C=C/c2ccccc2)c2[nH]cnc2n1", "> 100 µM"),
    ("NC(=O)C12CC3CC(CC(F)(C3)C1)C2", "> 100 µM"),
]

----------
Each entry below carries its reported TGI.
Test system: NCI-H460 lung
EXPERIMENTAL PROTOCOL: NCI tumour cell line growth inhibition, 48 h
Where a SMILES comes first, the peptide text is derived from it. The star is where a group is joined. Cbz = O=C(OCc1ccccc1)*
RECORDED METRIC: TGI

# MOLECULE, ASSAYED SYSTEM, RECORDED METRIC, TEST VALUE
rows = [
    ("C1=CC(N(c2ccccc2)C2C=CCCC2)CCC1 (stereo not given)", "NCI-H460 lung", "TGI", "> 100 µM"),
    ("Nc1nc(/C=C\\c2ccc([N+](=O)[O-])s2)nc(N2CCCC2)n1", "NCI-H460 lung", "TGI", "16.1 µM"),
    ("O=C(CCc1n[nH]c(=S)o1)Nc1ccccc1C(F)(F)F", "NCI-H460 lung", "TGI", "> 100 µM"),
    ("O=C(O)CCC(NC(=O)OCc1ccccc1)C(=O)NC(Cc1cnc[nH]1)C(=O)O (stereo not drawn) (Cbz-Glu-His-OH; configuration not given here)", "NCI-H460 lung", "TGI", "> 100 µM"),
    ("O=C1Nc2ccccc2/C1=N\\[O-].O=C1Nc2ccccc2/C1=N\\[O-].[Cu+2]", "NCI-H460 lung", "TGI", "> 100 µM"),
    ("C=C(C)[C@@H]1CC[C@]2(C(=O)NC3CCCCC3)CC[C@]3(C)[C@H](CC[C@@H]4[C@@]5(C)CCCNC(C)(C)[C@@H]5CC[C@]43C)[C@@H]12", "NCI-H460 lung", "TGI", "3.3 µM"),
    ("CN(C)CC[PH+](c1ccccc1)c1ccccc1.CN(C)CC[PH+](c1ccccc1)c1ccccc1.[Cl-].[Pd+2]", "NCI-H460 lung", "TGI", "> 100 µM"),
    ("CC1(C)N=C(N)N=C(N)N1c1ccc(CCc2ccccc2)cc1", "NCI-H460 lung", "TGI", "> 100 µM"),
    ("O=C1/C(=C/c2ccc3c(c2)OCO3)SC2C=Nc3ccccc3N12 (stereo not given)", "NCI-H460 lung", "TGI", "> 100 µM"),
    ("O=C(N[C@@H](c1ccc(Cl)c(Cl)c1)C1CNC1)c1ccc2cnccc2c1", "NCI-H460 lung", "TGI", "11 µM"),
    ("CN1CCOC(c2ccccc2)O1 (stereo not given)", "NCI-H460 lung", "TGI", "> 100 µM"),
    ("CCCCNC(=S)Nc1nc(C(=O)NNC(=S)Nc2ccccc2)cs1", "NCI-H460 lung", "TGI", "> 100 µM"),
    ("CC1c2c(Cl)nc3ccccc3c2Oc2c1c(Cl)nc1ccccc21", "NCI-H460 lung", "TGI", "> 100 µM"),
    ("O=C1OCC2=C1C(c1cccc(Br)c1)c1cc3c(cc1N2CCO)CCC3 (stereo not given)", "NCI-H460 lung", "TGI", "5.19 µM"),
    ("O=[N+]([O-])/C(C(Cl)=C(Cl)Cl)=C(/Cl)Sc1ccccc1", "NCI-H460 lung", "TGI", "34.6 µM"),
    ("CN1CCN(C(=S)N2CCN(C)CC2)CC1", "NCI-H460 lung", "TGI", "> 21.8 µM"),
    ("COC(=O)C(Cc1nc2ccc(Cl)cc2[nH]c1=O)/C(=N\\N)C(=O)Nc1cc(C)c(Cl)cc1S(=O)(=O)O (stereo not given)", "NCI-H460 lung", "TGI", "> 100 µM"),
    ("COc1cc(F)ccc1-c1ncnc(Nc2cccc(CS(C)(=N)=O)c2)n1 (stereo not given)", "NCI-H460 lung", "TGI", "> 100 µM"),
    ("COC(=O)/C=C(\\C)CC(O)/C=C(\\C)CCC=C(C)C (stereo not given)", "NCI-H460 lung", "TGI", "> 100 µM"),
    ("N#Cc1c(N)n(-c2cccc(C(=O)O)c2)c(=O)c2cc([N+](=O)[O-])ccc12", "NCI-H460 lung", "TGI", "> 100 µM"),
    ("C[C@@H]1CC[C@@H]2[C@@H]1[C@H](OC(=O)/C=C/c1ccccc1)[C@]1(C3CCCCC3)C[C@@H](OC(=O)CO)[C@@]2(C)O1", "NCI-H460 lung", "TGI", "6.55 µM"),
    ("N#CCCN(C(=O)Nc1ccccc1)[C@H]1CCCC[C@@H]1N(C(=O)Nc1ccccc1)c1ccccc1", "NCI-H460 lung", "TGI", "> 100 µM"),
    ("COc1ccc(/C=C2/N=C(c3ccccc3)N(c3c(C)n(C)n(-c4ccccc4)c3=O)C2=O)cc1OC", "NCI-H460 lung", "TGI", "> 100 µM"),
    ("CN(CC(=O)O)c1ncc2c(n1)CCCC2", "NCI-H460 lung", "TGI", "> 100 µM"),
    ("CN(C)CCCN1CCC2(CCC(C(C)(C)C)CC2)CC1", "NCI-H460 lung", "TGI", "2.36 µM"),
    ("CSc1nc(Nc2cccc(C(F)(F)F)c2)c2c(N)nn(C)c2n1", "NCI-H460 lung", "TGI", "> 100 µM"),
    ("COc1ccc(P2(=S)OC(C)(C)C(C)(C)O2)cc1", "NCI-H460 lung", "TGI", "> 100 µM"),
    ("O=C(/C=C/c1cccc2ccccc12)c1ccccc1Cl", "NCI-H460 lung", "TGI", "29.2 µM"),
    ("Cn1cc(C2=C(c3cn(CCCCO)c4ccccc34)C(=O)NC2=O)c2ccccc21", "NCI-H460 lung", "TGI", "> 25 µM"),
    ("CC(=O)c1[nH]c(NCc2ccccc2)c(C(=S)Nc2ccccc2)c1N", "NCI-H460 lung", "TGI", "56.5 µM"),
    ("CCOc1ccc(NC(=O)C(=O)CC(=O)c2c(C)n([O-])c3ccccc3[n+]2=O)cc1", "NCI-H460 lung", "TGI", "> 100 µM"),
    ("Oc1cccnc1[Se]", "NCI-H460 lung", "TGI", "> 100 µM"),
    ("c1ccc(CCNc2ccccn2)nc1", "NCI-H460 lung", "TGI", "> 100 µM"),
    ("CO/N=C(\\COc1ccc2c(c1)oc(=O)c1cc(OC)ccc12)c1ccc(OC)cc1", "NCI-H460 lung", "TGI", "> 100 µM"),
    ("COc1ccc(-c2nn(-c3ccc(NC(=O)c4ccc(Cl)c(Cl)c4)cc3)cc2-c2ccncc2)cc1Cl", "NCI-H460 lung", "TGI", "> 50 µM"),
    ("Nc1nc(N)c2c3c(cnc2n1)CC(c1ccccc1)CC3 (stereo not given)", "NCI-H460 lung", "TGI", "> 100 µM"),
    ("CC(O)C1(CNc2cc(Cl)nc(N)n2)CCC1 (stereo not given)", "NCI-H460 lung", "TGI", "> 100 µM"),
    ("Cc1ccc(NC(=O)CC2CC2)cc1-c1ccc(C(=O)NCC2CC2)cc1", "NCI-H460 lung", "TGI", "> 25 µM"),
    ("COc1cccc2c1C(=O)c1c(O)c3c(c(O)c1C2=O)C[C@](O)(C(=O)CO)C[C@H]3O[C@@H]1C[C@@H](NC(=O)CCCCCN(C)C2(c3ccc(F)cc3)CC3CCC2C3)[C@H](O)[C@@H](C)O1 (stereo not given in full)", "NCI-H460 lung", "TGI", "1.37 µM"),
    ("N#Cc1c(N)nc2n[nH]c(N)c2c1-c1ccc(Cl)cc1", "NCI-H460 lung", "TGI", "> 96.7 µM"),
]
